assayed_system: Alpha-2C adrenergic receptor (Homo sapiens) (UniProt P18825)
Sequence (P18825 whole entry, looked up): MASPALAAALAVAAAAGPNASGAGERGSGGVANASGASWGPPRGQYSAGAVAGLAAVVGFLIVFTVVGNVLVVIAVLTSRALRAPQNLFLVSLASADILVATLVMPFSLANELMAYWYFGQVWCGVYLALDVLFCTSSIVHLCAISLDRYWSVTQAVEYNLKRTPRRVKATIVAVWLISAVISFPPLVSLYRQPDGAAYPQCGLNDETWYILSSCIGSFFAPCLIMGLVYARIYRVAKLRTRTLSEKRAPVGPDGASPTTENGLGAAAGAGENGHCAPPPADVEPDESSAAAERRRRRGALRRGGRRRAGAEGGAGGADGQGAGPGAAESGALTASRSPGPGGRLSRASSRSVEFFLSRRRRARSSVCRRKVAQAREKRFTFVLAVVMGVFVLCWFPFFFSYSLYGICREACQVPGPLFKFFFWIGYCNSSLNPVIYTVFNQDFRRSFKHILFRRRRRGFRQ
method_summary: modulators of alpha2C/GIRK thallium flux, primary screen, cell-based, HEK293 alpha2C/GIRK1/2 (AID 624);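 also: slope of fluorescence ratio to pre-addition baseline per second over 15 to 24 s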
condition_description: thallium flux BTC fluorescence, at 10 µM, actives lie on both sides
The entries below come with measured slope values attached.
Just the number, please, no unit after it.

Illustrative cases are given below, each with its answer.
CCC1CCCCN1C(=O)Cn1c(C(=O)OC)cc2sc(Cl)cc21 (configuration not stated)    0.00448
Cc1ccc(S(=O)(=O)NCC(=O)N(CC(=O)NC2CCCCC2)Cc2ccco2)cc1    0.00754
C=CCN1C(=O)C2(/C(=C(\O)c3ccc4c(c3)OCCO4)C(=O)C(=O)N2CCCOC)c2ccccc21 (configuration not stated)    0.00507
CCOC(=O)C1CCN(C(=O)C2(NC(=O)Nc3ccccc3Cl)CCCCC2)CC1    0.0059

In: Recorded slope of COc1ccc2cc(C(c3nnnn3C3CCCCC3)N3CCCCCC3)c3nnnn3c2c1 (configuration not stated) , please.
Out: 0.00937

In: // query slope value for entry O=C(NCc1ccco1)c1cnc2n(c1=O)CCS2
Out: 0.00633

In: Recorded slope of Cc1nnc(N2C(=O)c3oc4ccccc4c(=O)c3C2c2ccco2)s1 (configuration not stated) , please.
Out: 0.00589

In: Using the record for COc1ccc(N2CC(C(=O)Nc3ccc(F)cc3F)CC2=O)cc1 (configuration not stated) , report its slope.
Out: 0.00428

====

method_summary: inhibitors of mutant huntingtin aggregation, primary screen, imaging, exon1htt(103Q)mCFP cells, high-content imaging (AID 483);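 also: compound exposure lasted 3 days before fixation; percent of the per-plate median nuclei count of sample wells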
condition_description: exon1htt(103Q)mCFP cell line, aggregate imaging, at 2 µM; measured here: cell count, toxicity
quantity_name: nuclei count (%)
Write the value in % as a bare number.

# example entries with known answers
CCOC(=O)C(NC(C)=O)(Nc1ccc(S(=O)(=O)Nc2nccs2)cc1)C(F)(F)F (stereo not drawn)    93.8
O=C(NCC1CCCO1)c1ccc(C(=O)NCC2CCCO2)cc1 (stereo not drawn)    101
CCn1cc(C(=O)N2CCOCC2)c(=O)c2cc(S(=O)(=O)N(C)C3CCCCC3)ccc21    84.2
CCCN(CC1CC1)C(=O)Nc1ccccc1C    101
O=C(COc1ccc2ccccc2c1)N1CCCC1    77.8
COc1ccc(C)cc1-n1nnnc1SCC(=O)Nc1cc(C)on1    96.7
CSC1=N/C(=C\C=C\c2cccs2)C(=O)S1    106

In: If you can, please state the reported nuclei count value of CCc1c(C(=O)NCCc2ccc(OC)c(OC)c2)[nH]c(C)c1C(C)=O .
Out: 107

====

method_summary: inhibitors of TNFa-induced NFkB p65 translocation, primary screen, imaging, HUVEC, MLSMR starter and 10KST1 sets (AID 438);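 also: compound added about 3h40 before a 20 min TNFalpha stimulation; signal is the nuclear over cytoplasmic p65 intensity ratio per well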
condition_description: HUVEC TNFa-induced p65 nuclear translocation; at 2 µM, stronger effect = higher value, 0% TNFa-plus-vehicle, 100% no-TNFa wells
Entries and their measured inhibition follow.
Give the quantity in %, number only.

Here's what some known entries look like.
CC(C)CNc1nc2c(c(=O)n(C)c(=O)n2C)n1Cc1cccc(Br)c1    0.6
COc1ccc(N2CCN(CCNC(=O)CCS(=O)(=O)c3cccc4nsnc34)CC2)cc1    -6.4
Cc1cc2c(c(=O)n1Cc1ccccn1)C(c1ccc3c(c1)OCO3)C(C#N)=C(N)O2 (centres undefined)    -7.3

In: Which inhibition is listed for COc1cc(NC(=O)C2C3C=CC(C3)C2C(=O)O)c(OC)cc1Cl (centres undefined) ?
Out: 0.8

In: Need inhibition, item c1ccc(OCCCn2nnc(-c3cccnc3)n2)cc1
Out: 0.3

In: Param item = COc1ccc(CCn2c(C)cc3c(c2=O)C(c2ccc4c(c2)OCO4)C(C#N)=C(N)O3)cc1OC (centres undefined) ; retrieve measured inhibition.
Out: -0.5

In: Entry under review: O=C(c1cc2ccccc2oc1=O)N1CCN(c2ccc(N3CCOCC3)nn2)CC1 . Reported inhibition?
Out: -6.9

In: Give the measured inhibition of O=C1c2ccccc2C(=O)N1CNc1ccccc1 .
Out: -2.7

In: Requested read-out: inhibition. Entry: Clc1ccc(-n2nnnc2Sc2ncnc3sccc23)cc1
Out: -9

Just for reference, PubChem BioAssay is where these values come from.
